- TEST NAME: Stability in human serum
- Type: in vitro ADME
- ASSAY CONTEXT: CPP linked peptides, read-out: Stability in Human Serum (t1/2)
No end group written: not given here.
PARAMETER MEASURED: half-life (h)
Form entry: value (h) — number only.

PRRRRRRRRRRPILRIRYWKP | 3.33
RRRRRRRRRRPIIRIRHYR [RRRRRRRRRRPIIRIRHYR] | 0.5
RRRRRRRRRRPILTRITLE [RRRRRRRRRRPILTRITLE, reference compound] | 5.65
RRRRRRRRRRPIIRIRHYP [RRRRRRRRRRPIIRIRHYP] | 4.92
PRRRRRRRRRRPITRIRFYRP | 1.72
RRRRRRRRRRPIIRIRHYRP | 2.07

Let us examine a further case.
I would be grateful if you could share the reported half-life for PRRRRRRRRRRPIIRIRHYRP .
1.93

* * *

- TEST NAME: Protein binding in human serum
- Type: in vitro ADME
- ASSAY CONTEXT: CPP linked peptides
No end group written: not given here.
PARAMETER MEASURED: fraction unbound

# annotated cases, reported fraction unbound shown
PRRRRRRRRRRPILRIRYWKP | 0.02
RRRRRRRRRRPIIRIRHYP [RRRRRRRRRRPIIRIRHYP] | 0.17

Please report the recorded fraction unbound for PRRRRRRRRRRPITRIRFYRP .
0.11

Please give the measured fraction unbound for this sequence: RRRRRRRRRRPILTRITLE [RRRRRRRRRRPILTRITLE, reference compound]
0.34

Fill in: fraction unbound of PRRRRRRRRRRPIIRIRHYRP is ___
0.11

Which fraction unbound is listed for RRRRRRRRRRPIIRIRHYR [RRRRRRRRRRPIIRIRHYR] ?
0.16

Look up fraction unbound for this sequence: RRRRRRRRRRPIIRIRHYRP
0.19

* * *

- MEASUREMENT TARGET: Nat1 (LTIITLE (SEQ ID NO: 225)) (Homo sapiens)
- TEST NAME: Thioflavin T aggregation assay (Nat1)
- Type: biochemical
- ASSAY CONTEXT: ThT fluorescence, 50 μM Nat1, pH6.0, room temperature, 2 hours
PARAMETER MEASURED: IC50 (nM)
# unit: nM | format: bare number

Entry under review: Ac-IRIRRYR-NH2 [Ac-IRIRRYR-NH2] . Reported IC50?
69

All figures here come from patent US11117930B2.
